I'd appreciate it if you could supply pKi values for the items below.
Test: Inhibition of the current elicited by 100 uM glutamate by simultaneous co-application of the antagonist in xenopus oocytes injected with a 1:1 mixture of GluR1 flop and GluR2 flop RNA as well as GluR5(Q).
Assay type: functional, cell-based, Xenopus laevis
Settings: oocyte
Units for pKi: none; it is -log10 of a concentration expressed in mol/L.

Need pKi of CCCC(=O)NC(Cc1ccc(O)cc1)C(=O)NCCCCCCCNCCCCN (configuration not stated) , thanks.
6.54

Need pKi of CCCC(=O)NC(Cc1ccc(O)cc1)C(=O)NCCCCCNCCCCCCN (configuration not stated) , thanks.
5.66

Need pKi of CCCC(=O)NC(Cc1ccc(O)cc1)C(=O)NCCCCCCNCCCCCN (configuration not stated) , thanks.
6.10

Need pKi of CCCC(=O)NC(Cc1ccc(O)cc1)C(=O)NCCCCCCCCCNCCN (configuration not stated) , thanks.
5.68

Need pKi of CCCC(=O)NC(Cc1ccc(O)cc1)C(=O)NCCCCNCCCCCCCN (configuration not stated) , thanks.
7.22

Need pKi of CCCC(=O)NC(Cc1ccc(O)cc1)C(=O)NCCCCCCCCNCCCN (configuration not stated) , thanks.
6.60

Need pKi of CCCC(=O)NC(Cc1ccc(O)cc1)C(=O)NCCCNCCCCNCCCN (configuration not stated) , thanks.
7.82

---

Assay: Inhibition of the current elicited by 100 uM glutamate by simultaneous co-application of the antagonist in xenopus oocytes injected with a 1:1 mixture of GluR1 flop and GluR2 flop RNA
Format: functional, cell-based, Xenopus laevis
Conditions: oocyte
test-readout: pKi
Units for pKi: none; it is -log10 of a concentration expressed in mol/L.

Need pKi of CCCC(=O)NC(Cc1ccc(O)cc1)C(=O)NCCCCCCCNCCCCN (configuration not stated) , thanks.
5.80

Need pKi of CCCC(=O)NC(Cc1ccc(O)cc1)C(=O)NCCCCCCNCCCCCN (configuration not stated) , thanks.
5.19

Need pKi of CCCC(=O)NC(Cc1ccc(O)cc1)C(=O)NCCCCCNCCCCCCN (configuration not stated) , thanks.
5.28

---

I'd appreciate it if you could supply Ki values for the items below.
Biological target: Glutamate receptor 1 (Homo sapiens)
Sequence (P42261 whole entry): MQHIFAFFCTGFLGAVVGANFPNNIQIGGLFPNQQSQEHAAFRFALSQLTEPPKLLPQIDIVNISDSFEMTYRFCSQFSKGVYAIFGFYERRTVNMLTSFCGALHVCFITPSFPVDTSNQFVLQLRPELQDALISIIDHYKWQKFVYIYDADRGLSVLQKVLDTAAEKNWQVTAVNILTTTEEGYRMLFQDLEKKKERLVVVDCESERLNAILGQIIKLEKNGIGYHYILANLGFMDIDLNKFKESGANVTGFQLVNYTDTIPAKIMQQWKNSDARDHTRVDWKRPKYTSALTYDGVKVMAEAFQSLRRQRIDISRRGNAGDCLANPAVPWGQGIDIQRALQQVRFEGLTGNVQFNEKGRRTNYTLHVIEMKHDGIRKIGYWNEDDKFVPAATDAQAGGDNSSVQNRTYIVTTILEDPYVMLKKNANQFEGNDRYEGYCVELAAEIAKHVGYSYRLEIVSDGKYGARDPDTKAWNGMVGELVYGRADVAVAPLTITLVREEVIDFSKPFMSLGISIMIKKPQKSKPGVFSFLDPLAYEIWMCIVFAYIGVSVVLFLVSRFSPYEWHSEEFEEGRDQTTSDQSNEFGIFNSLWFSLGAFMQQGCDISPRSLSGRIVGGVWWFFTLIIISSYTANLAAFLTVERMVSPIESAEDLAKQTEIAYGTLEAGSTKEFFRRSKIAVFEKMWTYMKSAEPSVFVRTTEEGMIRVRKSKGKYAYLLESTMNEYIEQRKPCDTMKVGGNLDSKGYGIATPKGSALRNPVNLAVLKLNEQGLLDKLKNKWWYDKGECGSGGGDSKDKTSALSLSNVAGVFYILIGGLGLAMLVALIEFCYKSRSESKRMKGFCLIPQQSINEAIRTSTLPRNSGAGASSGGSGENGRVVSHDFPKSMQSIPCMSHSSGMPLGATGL
Assay: Inhibition of the (-40 mV) current elicited by 100 uM glutamate by simultaneous co-application in xenopus oocytes injected with GluR1 flop RNA.
Format: cell-based, Oocyte

Need Ki of CCCC(=O)NC(Cc1ccc(O)cc1)C(=O)NCCCCCCCCNCCCN (centres undefined) , thanks.
8000 nM

Need Ki of CC(=O)NC(Cc1ccc(O)cc1)C(=O)NCCCCCCCCNCCCN (centres undefined) , thanks.
300 nM

Need Ki of CCCC(=O)NC(Cc1ccc(O)cc1)C(=O)NCCCCCNCCCCCCN (centres undefined) , thanks.
287 nM

Need Ki of CCC(=O)NC(Cc1ccc(O)cc1)C(=O)NCCCCCCCCNCCCN (centres undefined) , thanks.
280 nM

Need Ki of NCCCNCCCCCCCCNC(=O)C(Cc1ccc(O)cc1)NC(=O)c1ccccn1 (centres undefined) , thanks.
170 nM

Need Ki of NCCCNCCCCCCCCNC(=O)C(Cc1ccc(O)cc1)NC(=O)c1ccncc1 (centres undefined) , thanks.
330 nM

Need Ki of CCCC(=O)NC(Cc1ccc(O)cc1)C(=O)NCCCNCCCCNCCCN (centres undefined) , thanks.
170000 nM

Need Ki of CCCC(=O)NC(Cc1ccc(O)cc1)C(=O)NCCCCNCCCCCCCN (centres undefined) , thanks.
135 nM

Need Ki of CCCCCC(=O)NC(Cc1ccc(O)cc1)C(=O)NCCCCCCCCNCCCN (centres undefined) , thanks.
1000 nM

Need Ki of NCCCNCCCCCCCCNC(=O)C(Cc1ccc(O)cc1)NC(=O)C1CCCCC1 (centres undefined) , thanks.
240 nM

Need Ki of CC(C)(C)C(=O)NC(Cc1ccc(O)cc1)C(=O)NCCCCCCCCNCCCN (centres undefined) , thanks.
140 nM

Need Ki of NCCCNCCCCCCCCNC(=O)C(Cc1ccc(O)cc1)NC(=O)/C=C/c1ccccc1 (centres undefined) , thanks.
170 nM

Need Ki of NCCCNCCCCCCCCNC(=O)C(Cc1ccc(O)cc1)NC(=O)Cc1ccccc1 (centres undefined) , thanks.
250 nM

Need Ki of CCCC(=O)NC(Cc1ccc(O)cc1)C(=O)NCCCCCCCCCNCCN (centres undefined) , thanks.
6200 nM

Need Ki of NCCCNCCCCCCCCNC(=O)C(Cc1ccc(O)cc1)NC(=O)c1cccnc1 (centres undefined) , thanks.
210 nM

Need Ki of CCCC(=O)NC(Cc1ccc(O)cc1)C(=O)NCCCCCCNCCCCCN (centres undefined) , thanks.
> 10000 nM

Need Ki of NCCCNCCCCCCCCNC(=O)C(Cc1ccc(O)cc1)NC(=O)CCc1ccccc1 (centres undefined) , thanks.
254 nM

Need Ki of NCCCNCCCCCCCCNC(=O)C(Cc1ccc(O)cc1)NC(=O)c1ccccc1 (centres undefined) , thanks.
250 nM

Need Ki of CCCC(=O)NC(Cc1ccc(O)cc1)C(=O)NCCCCCCCNCCCCN (centres undefined) , thanks.
3000 nM
